test: DPPH• radical scavenging assay; conditions: 100 µM DPPH•, 30 min, room temperature, dark; read-out: DPPH● radical scavenging (RS) activity IC50
For each record, write down the corresponding pIC50.
Numbers only, as −log10 of the molar value.

>  <compound>
COc1cc(/C=C/C(=O)c2cnc(CC(C)C)cn2)ccc1O [Compound 4e]

>  <pIC50>
4.34

$$$$

Look up and report measured pIC50 for this entry: COc1cc(/C=C/C(=O)c2cnccn2)ccc1O [Compound 4a]
3.73

---

For each record, write down the corresponding IC50.
test: MTS cytotoxicity assay, overnight, THP-1; type: cell-based, human; conditions: human, THP-1 cells, overnight, concentration range 100–0.2 µM
Give bare numbers, in µM.

>  <molecule>
CC(C)c1cnc(C(=O)/C=C/c2ccccc2O)cn1 [Compound 1c]

>  <value-observed>
96

$$$$
>  <molecule>
CCCCc1cnc(C(=O)/C=C/c2ccccc2O)cn1 [Compound 1d]

>  <value-observed>
27

$$$$

Now consider the entry below.
Look up and report measured IC50 for this entry: O=C(/C=C/c1ccccc1O)c1ccccc1 [Compound 1]
70

---

For each record, write down the corresponding IC50.
experiment: MTS cytotoxicity assay, overnight, THP-1; type: cell-based, human; settings: human, THP-1 cells, overnight, concentration range 100–0.2 µM
Answers are plain numbers, in µM.

Guide cases for IC50, answers given:
>  <compound>
CCCCc1cnc(C(=O)/C=C/c2cccc(O)c2)cn1 [Compound 2d]

>  <IC50 / µM>
67

$$$$
>  <compound>
CC(C)Cc1cnc(C(=O)/C=C/c2ccccc2O)cn1 [Compound 1e]

>  <IC50 / µM>
94

$$$$
>  <compound>
CC(C)c1cnc(C(=O)/C=C/c2cccc(O)c2)cn1 [Compound 2c]

>  <IC50 / µM>
83

$$$$

Now consider the entry below.
Look up and report measured IC50 for this entry: CCCc1cnc(C(=O)/C=C/c2cccc(O)c2)cn1 [Compound 2b]
48

---

Assay: MTS cytotoxicity assay, overnight, HepG2
Format: cell-based
Settings: human, HepG2 cells, concentration range 100–0.2 µM
Description: Adherent liver hepatocellular carcinoma cell line HepG2 (ATCC, HB-8065) and human acute monocytic leukemia cell line in suspension THP-1 (ATCC, TIB-202) were purchased from American Type Culture Collection (ATCC, Manassas, VA, USA). […] A cytotoxicity assay was performed using MTS CellTiter 96 AQueous One Solution Cell Proliferation Assay (Promega, G3580, Madison, WI, USA). […] The absorbance was recorded at 490 nm using a Wallac Victor2 microplate reader (PerkinElmer, Waltham, MA, USA). […]
measurement-kind: pIC50
Answers are plain numbers, as −log10 of the molar value.

Give pIC50 for each of the items listed below.
1. CC(C)c1cnc(C(=O)/C=C/c2cccc(O)c2)cn1
2. CCCCc1cnc(C(=O)/C=C/c2ccccc2O)cn1

1. 4.01
2. 4.07

---

Test: MTS cytotoxicity assay, overnight, THP-1
Format: cell-based, human
Conditions: human, THP-1 cells, overnight, concentration range 100–0.2 µM
Experimental: Adherent liver hepatocellular carcinoma cell line HepG2 (ATCC, HB-8065) and human acute monocytic leukemia cell line in suspension THP-1 (ATCC, TIB-202) were purchased from American Type Culture Collection (ATCC, Manassas, VA, USA). […] A cytotoxicity assay was performed using MTS CellTiter 96 AQueous One Solution Cell Proliferation Assay (Promega, G3580, Madison, WI, USA). […] The absorbance was recorded at 490 nm using a Wallac Victor2 microplate reader (PerkinElmer, Waltham, MA, USA). […]
measurement-kind: IC50

Guide cases for IC50, answers given:
>  <smi>
COc1cc(/C=C/C(=O)c2cnc(CC(C)C)cn2)ccc1O

>  <IC50>
> 100 µM

$$$$
>  <smi>
CC(C)Cc1cnc(C(=O)/C=C/c2cccc(O)c2)cn1

>  <IC50>
> 100 µM

$$$$

Give IC50 for each of the items listed below.
1. O=C(/C=C/c1ccccc1O)c1cnccn1
2. O=C(/C=C/c1cccc(O)c1)c1cnccn1
3. O=C(/C=C/c1ccc(O)cc1)c1cnccn1
4. CCCCc1cnc(C(=O)/C=C/c2ccc(O)cc2)cn1

["40 µM", "50 µM", "97 µM", "83 µM"]
